Source: PubChem BioAssay (NCI)

experimentDescription: NCI Yeast Anticancer Drug Screen. Data for the mec2-1 strain (AID 157)
assayContext: S. cerevisiae mec2-1 strain, at 50.0 µM
About 79,000 compounds went through this panel and 15% of them were active in at least one assay; those are over-represented in the sample as a whole. Active and inactive are the calls of the source. No stated cut-off is given here; in the data, active means growth inhibition above about 70%; inactive means the rest.
Classes used: t = active, f = inactive

compound	labelClass
[Pt].c1ccc([PH+](c2ccccc2)c2ccccc2)cc1.c1ccc([PH+](c2ccccc2)c2ccccc2)cc1.c1ccc([PH+](c2ccccc2)c2ccccc2)cc1.c1ccc([PH+](c2ccccc2)c2ccccc2)cc1	f
CC(C)(C)C1COP(=S)(C(C)(C)C)OC1 (configuration not stated)	f
CCN1C2CCC1CC(=O)C2	f
CCN1CCC(O)(c2ccc(O)cc2)C(C(=O)c2ccc(O)cc2)C1 (configuration not stated)	t
CCOP(=O)(OCC)C(N)Cc1ccc(OC)c(OC)c1 (configuration not stated)	f
O=[N+]([O-])c1ccc(N(CCO)CCO)c2c1no[n+]2[O-]	f
CC(=O)[O-].N.N.N.N.[Co+3].[O-][Cl+3]([O-])([O-])[O-].[OH3+]	f
CC[As](=O)(O)c1ccc(I)cc1	f
OCCCCO	f
Oc1cc(Br)c(O)c(Br)c1	f
[Cl][Hg][c]1ccc2ccccc2c1	t
Cc1ccc2c(-c3ccccc3)c3ccccc3[s+]c2c1	t

###

experimentDescription: NCI Yeast Anticancer Drug Screen. Data for the sgs1 mgt1 strain (AID 161)
assayContext: S. cerevisiae sgs1 mgt1 strain, at 50.0 µM
The panel holds about 79,000 compounds, 15% with a hit somewhere; the sample as a whole holds those more often. The source made the active and inactive calls. No stated cut-off is given here; in the data, active means growth inhibition above about 70%; inactive means the rest.
Classes used: active, inactive

In [3]: df
Out[3]:
                                    compound  labelclass
 0  ClCCN(CCCl)c1ccc(-c2csc(Cc3ccccc3)n2)cc1    inactive
 1      CC(C)c1ccc(C(C)C)c(C(=O)CN2CCOCC2)c1    inactive
 2                  [O-]c1n[n+](C2CCCCC2)no1    inactive
 3    ClCCN(CCCl)Cc1c2ccccc2cc2c1ccc1ccccc12    inactive
 4  O=C1CC(c2ccccc2)n2cccc21 (centres undefined)    inactive
 5               CCCCN1CCC2(CC1)COCc1ccccc12    inactive
 6                   CCSc1nc(=[N+]2CCCC2)ss1      active
 7            CCCCOOC(=O)c1ccccc1C(=O)OOCCCC      active
 8  O=C(Nc1cc(S(=O)(=O)F)ccc1Cl)Oc1ccc([N+](=O)[O-])cc1    inactive
 9                          Nc1n[nH][nH]c1=O    inactive
10                [N-]=[N+]=NC1(C(=O)O)CCCC1    inactive
11  CCOC(=O)C1(O)N=C(c2ccccc2)c2ccccc2-n2cccc21 (centres undefined)    inactive
12                     CCCCN(CCCC)CCc1ccccc1    inactive
13                          CC(=O)NNc1ccccc1    inactive
14  N#CC(c1ccccc1)N1CCCN(C(C#N)c2ccccc2)C1c1ccc(N(CCCl)CCCl)cc1 (centres undefined)    inactive
15  O=S(=O)(O)O.[Co+2].[NH-]CC[NH-].[NH-]CC[NH-].[NH-]CC[NH-]    inactive
16                 NC(=O)c1ccc([As](O)O)cc1N    inactive
17  CN(C)CCNC(=O)c1ccc([N+](=O)[O-])c(C(C)(C)C(=O)Nc2ccc(N(CCCl)CCCl)cc2)c1    inactive
18  CP(O)(=S)C1CCCCC1 (centres undefined) (tested in a mixture with another compound)    inactive
19        CC(=O)Oc1ccc(/C=C/[N+](=O)[O-])cc1      active
20  Cc1cc[n+](C2=C(Nc3c(C)cccc3C)C(=O)c3ccccc3C2=O)cc1    inactive
21                   COc1cccc(C=C(C#N)C#N)c1    inactive
22       C[CH2][Pb]([CH2]C)([CH2]C)[O]C(C)=O      active
23  C(=Nc1ccccc1)C1CCCC[N-]1.C(=Nc1ccccc1)C1CCCC[N-]1.[Cu+2].[O-][Cl+3]([O-])([O-])O (centres undefined)    inactive
